Here, each record is paired with measured solubility kinetic data.
conditions: buffer; pH 7.4; 200.0 µM
MEASURE: solubility kinetic

{"columns": ["COMPOUND", "VALUE OBSERVED"],
 "data": [
  ["C=CCN(Cc1cccs1)C(=O)COc1ccc2c(c1)OCO2", "> 49.7 µg/mL"],
  ["Cc1cccc(C)c1NC(=O)COC(=O)[C@@H]1CCCN1C(=O)c1cccs1", "> 58 µg/mL"],
  ["CCOC(=O)COc1ccc(S(=O)(=O)NC2CC2)cc1", "> 44.9 µg/mL"],
  ["c1ccc2[nH]c(SCC3CCCCO3)nc2c1 (configuration not stated)", "> 37.3 µg/mL"],
  ["O=C(CSc1ncnc2ccccc12)c1ccco1", "> 40.5 µg/mL"],
  ["CC1(C)Cc2ccccc2/C(=C/C(=O)c2ccccc2)N1", "< 0.6 µg/mL"],
  ["O=C(NN=C1CCCC1)c1ccc(Cl)cc1", "> 35.5 µg/mL"]
]}

###

conditions: buffer; pH 7.4; 200.0 µM

{"columns": ["COMPOUND", "VALUE UNIT", "RELATION SYMBOL", "solubility kinetic"],
 "data": [
  ["O=C(CSc1ccc(-c2ccc(F)cc2)nn1)NCC1CCCO1 (stereo not given)", "µg/mL", ">", 52.1],
  ["NC(=O)Nc1ccc(C(=O)OCC(=O)NC2CCCCC2)cc1", "µg/mL", "=", 37.5],
  ["CC(=O)Nc1ccc(NC(=O)CN2C(=O)NC3(CCCCCCC3)C2=O)cc1", "µg/mL", "=", 45.1],
  ["O=C(Cc1cccc2ccccc12)Nc1ccc(N2CCOCC2)cc1", "µg/mL", "=", 1.7],
  ["CSc1nc2nc3c(cc2c(=O)n1-c1ccc(C)cc1)COC(C)(C)C3", "µg/mL", "=", 2.3],
  ["Cc1cc(Cl)n2c(nc3cc(F)c(F)cc32)c1C#N", "µg/mL", "=", 4.7],
  ["Cl.Fc1ccc(-c2csc(Nc3ccccn3)n2)c(F)c1", "µg/mL", "<", 0.2],
  ["COc1ccc(NC(=O)c2c(N)cnn2C)cc1", "µg/mL", ">", 36.9],
  ["Cc1c(C(=O)NNC(=O)c2cccnc2)cccc1[N+](=O)[O-]", "µg/mL", ">", 45],
  ["COc1ccccc1N1C(=O)CSC1=NC(=O)c1ccccc1", "µg/mL", "=", 3],
  ["S=C(NCCc1ccc(Cl)cc1)NCc1ccccc1", "µg/mL", "=", 16.7],
  ["COc1ccc(OC)c(Nc2nc(N)nc(CCl)n2)c1", "µg/mL", "=", 22.4],
  ["N#C/C(=C\\c1ccncc1)c1nc2ccccc2o1", "µg/mL", "=", 12.9],
  ["CCNS(=O)(=O)c1ccc(CCC(=O)N2CCCC2)cc1", "µg/mL", ">", 46.6],
  ["S=C(NCc1ccco1)Nc1ccc(Oc2ccc(Cl)cc2)cc1", "µg/mL", "<", 0.4],
  ["COc1cc(C(=O)NCCSc2ccccc2)cc(OC)c1OC", "µg/mL", "=", 49.9],
  ["Cc1ccc(NC(=O)C(=O)C2C(=O)Nc3ccccc32)cc1 (stereo not given)", "µg/mL", "=", 39.8],
  ["CC(C)(C)N(Cc1ccccc1)C(=O)COC(=O)C1CCCCC1", "µg/mL", "=", 24.4],
  ["O=C(Nc1cccc(-c2cn3ccccc3n2)c1)c1ccccc1", "µg/mL", "=", 21],
  ["CCn1cnc2cc(NCc3cccs3)ccc21", "µg/mL", ">", 38.6],
  ["O=C(O)c1cccnc1SCc1ccc([N+](=O)[O-])cc1", "µg/mL", ">", 43.5],
  ["COc1ccccc1NC(=O)CC(=O)c1ccccc1", "µg/mL", ">", 40.4],
  ["CCOC(=O)C1=C(C)NC(=O)NC1/C=C/c1ccccc1OC (stereo not given)", "µg/mL", "=", 2.6],
  ["C/C(=N/NC(=O)CNC(=O)c1cccnc1)c1ccco1", "µg/mL", ">", 42.9],
  ["CCN1C(=O)c2ccc(C(=O)Nc3c(C)cc(C)cc3C)cc2C1=O", "µg/mL", "<", 0.4],
  ["Cc1ccc(S(=O)(=O)CCc2ccncc2)cc1", "µg/mL", ">", 39.2],
  ["Cc1csc(NC(=O)c2cccnc2)n1", "µg/mL", "=", 32.5],
  ["CCN1C(=O)CSC1=Nc1cccc(C(=O)O)c1", "µg/mL", ">", 39.6],
  ["CC(C)(C)SCCNC(=O)/C=C/c1ccccc1", "µg/mL", "=", 33.9],
  ["Cc1[nH]c(=O)[nH]c(=O)c1/C=C/C(=O)O", "µg/mL", ">", 29.4],
  ["Cc1ncc([N+](=O)[O-])n1Cc1cccc(F)c1", "µg/mL", ">", 35.3],
  ["CN(C)c1cccc(C(=O)NCCCSc2ccccc2)c1", "µg/mL", "=", 17.9],
  ["CCOc1ccc(N2C(=O)CC(NCC3CCCO3)C2=O)cc1 (stereo not given)", "µg/mL", ">", 47.8],
  ["Cn1c(SCc2cccc(C#N)c2)nc2ccccc2c1=O", "µg/mL", "=", 0.4],
  ["CSc1nc(N)nc(C2CC2)n1", "µg/mL", "=", 24.4]
]}
